test system: HepG2 cells; conditions: 24 h
*1 amine or outer side, *2 acyl side, *3 side chain or, on linkers, in order; H or OH if unused. Where a SMILES comes first, the peptide text is derived from it. [ ]: non-standard residue; d: D form. The star is where a group is joined. X2 = CC=C(N[*:1])C(=O)[*:2]; dOrn = NCCC[C@@H](N)C(=O)O; Valol = CC(C)[C@@H](CO)N*; X1 = CCC(C)C(O)C(=O)*
readout.name: HepG2 CC50
Number first, unit second.

compound	readout.name	assay.result
CC=C(NC(=O)C(O)C(C)CC)C(=O)N[C@@H](CC(C)C)C(=O)N[C@H](CCCN)C(=O)N[C@H](C(=O)N[C@H](C(=O)N[C@H](C(=O)N[C@H](CCCCN)C(=O)N[C@H](C(=O)N[C@H](C(=O)N[C@@H](CCCCN)C(=O)N[C@H](Cc1ccc(O)cc1)C(=O)N[C@@H](CC(C)C)C(=O)N[C@H](CO)C(C)C)C(C)C)C(C)C)C(C)C)[C@@H](C)CC)[C@@H](C)CC (stereo partly drawn) [brevibacillin] (X1-[X2]L[dOrn]IIV[dK]VVK[dY]L-Valol)	HepG2 CC50	5.21 ± 0.01 µg/mL

Asked: Query: HepG2 CC50; subject: CC=C(NC(=O)C(O)C(C)CC)C(=O)N[C@@H](CC(C)C)C(=O)N[C@H](CCCN)C(=O)N[C@H](C(=O)N[C@H](C(=O)N[C@H](C(=O)N[C@H](CCCCN)C(=O)N[C@H](C(=O)N[C@H](C(=O)N[C@@H](CCCCN)C(=O)N[C@H](Cc1ccc(O)cc1)C(=O)N[C@@H](CC(C)C)C(=O)N[C@H](CO)C(C)C)C(C)C)C(C)C)C(C)C)C(C)C)C(C)C (stereo partly drawn) [brevibacillin 2V] (X1-[X2]L[dOrn]VVV[dK]VVK[dY]L-Valol)
Given back: 45.49 ± 0.24 µg/mL

Asked: Query: HepG2 CC50; subject: CC=C(NC(=O)C(O)C(C)CC)C(=O)N[C@@H](CC(C)C)C(=O)N[C@H](CCCN)C(=O)N[C@H](C(=O)N[C@H](C(=O)N[C@H](C(=O)N[C@H](CCCCN)C(=O)N[C@H](C(=O)N[C@H](C(=O)N[C@@H](CCCCN)C(=O)N[C@H](Cc1ccc(O)cc1)C(=O)N[C@@H](CC(C)C)C(=O)N[C@H](CO)C(C)C)C(C)C)C(C)C)C(C)C)C(C)C)[C@@H](C)CC (stereo partly drawn) [brevibacillin V] (X1-[X2]L[dOrn]IVV[dK]VVK[dY]L-Valol)
Given back: 9.89 ± 0.67 µg/mL

Asked: Query: HepG2 CC50; subject: CC=C(NC(=O)C(O)C(C)CC)C(=O)N[C@@H](CC(C)C)C(=O)N[C@H](CCCN)C(=O)N[C@H](C(=O)N[C@H](C(=O)N[C@H](C(=O)N[C@H](CCCCN)C(=O)N[C@H](C(=O)N[C@H](C(=O)N[C@@H](CCCCN)C(=O)N[C@H](Cc1ccc(O)cc1)C(=O)N[C@@H](CC(C)C)C(=O)N[C@H](CO)C(C)C)C(C)C)[C@@H](C)CC)C(C)C)[C@@H](C)CC)[C@@H](C)CC (stereo partly drawn) [brevibacillin I] (X1-[X2]L[dOrn]IIV[dK]IVK[dY]L-Valol)
Given back: 7.38 ± 0.30 µg/mL

* * *

system: A. baumannii ATCC17978; assay: Synergy assay, checkerboard method; settings: checkerboard, 5 × 10^5 cfu/ml, 37°C, 20 h; A. baumannii ATCC17978; antibiotic alone
Measured MIC of antibiotic at brevibacillin I 0 mg/L accompanies every entry in the list below.
// return numeric value only (unit: µg/mL, not printed)

Guide cases for MIC of antibiotic at brevibacillin I 0 mg/L, answers given:
structure.as.smiles	uom	assay.result
CCn1cc(C(=O)O)c(=O)c2ccc(C)nc21	µg/mL	32
NCC[C@H](O)C(=O)N[C@@H]1C[C@H](N)[C@@H](O[C@H]2O[C@H](CN)[C@@H](O)[C@H](O)[C@H]2O)[C@H](O)[C@H]1O[C@H]1O[C@H](CO)[C@@H](O)[C@H](N)[C@H]1O	µg/mL	16
CC[C@H]1OC(=O)[C@H](C)[C@@H](O[C@H]2C[C@@](C)(OC)[C@@H](O)[C@H](C)O2)[C@H](C)[C@@H](O[C@@H]2O[C@H](C)C[C@H](N(C)C)[C@H]2O)[C@](C)(O)C[C@@H](C)CN(C)[C@H](C)[C@@H](O)[C@]1(C)O	µg/mL	16

Asked: Query: MIC of antibiotic at brevibacillin I 0 mg/L; subject: `CO[C@H]1/C=C/O[C@@]2(C)Oc3c(C)c(O)c4c(O)c(c(/C=N/N5CCN(C)CC5)c(O)c4c3C2=O)NC(=O)/C(C)=C\C=C\[C@H](C)[C@H](O)[C@@H](C)[C@@H](O)[C@@H](C)[C@H](OC(C)=O)[C@@H]1C`
Given back: 32

* * *

test system: E. coli ATCC 25922; assay: Synergy assay, checkerboard method; settings: checkerboard, 5 × 10^5 cfu/ml, 37°C, 20 h; E.coli ATCC 25922; antibiotic alone;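 further: growth read as OD600 in microplates, with antibiotics tested across twofold serial dilutions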
readout.name: MIC of antibiotic at brevibacillin V 0 mg/L (mg/L)
// return numeric value only (unit: mg/L, not printed)

Guide cases for MIC of antibiotic at brevibacillin V 0 mg/L, answers given:
structure.as.smiles	assay.result
CCn1cc(C(=O)O)c(=O)c2ccc(C)nc21	2
CC[C@H]1OC(=O)[C@H](C)[C@@H](O[C@H]2C[C@@](C)(OC)[C@@H](O)[C@H](C)O2)[C@H](C)[C@@H](O[C@@H]2O[C@H](C)C[C@H](N(C)C)[C@H]2O)[C@](C)(O)C[C@@H](C)CN(C)[C@H](C)[C@@H](O)[C@]1(C)O	2
NCC[C@H](O)C(=O)N[C@@H]1C[C@H](N)[C@@H](O[C@H]2O[C@H](CN)[C@@H](O)[C@H](O)[C@H]2O)[C@H](O)[C@H]1O[C@H]1O[C@H](CO)[C@@H](O)[C@H](N)[C@H]1O	4

Moving on to another compound below.
Asked: Query: MIC of antibiotic at brevibacillin V 0 mg/L; subject: `CO[C@H]1/C=C/O[C@@]2(C)Oc3c(C)c(O)c4c(O)c(c(/C=N/N5CCN(C)CC5)c(O)c4c3C2=O)NC(=O)/C(C)=C\C=C\[C@H](C)[C@H](O)[C@@H](C)[C@@H](O)[C@@H](C)[C@H](OC(C)=O)[C@@H]1C`
Given back: 4

* * *

test system: P. aeruginosa LMG6395; assay: Synergy assay, checkerboard method; conditions: checkerboard, 5 × 10^5 cfu/ml, 37°C, 20 h, antibiotic alone;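 further: antibiotics tested in twofold serial dilutions, with inhibition judged from plate OD600 readings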
readout.name: MIC of antibiotic at brevibacillin I 0 mg/L (µg/mL)
// return numeric value only (unit: µg/mL, not printed)

structure.as.smiles	uom	assay.result
NCC[C@H](O)C(=O)N[C@@H]1C[C@H](N)[C@@H](O[C@H]2O[C@H](CN)[C@@H](O)[C@H](O)[C@H]2O)[C@H](O)[C@H]1O[C@H]1O[C@H](CO)[C@@H](O)[C@H](N)[C@H]1O	µg/mL	2

Asked: Query: MIC of antibiotic at brevibacillin I 0 mg/L; subject: `CO[C@H]1/C=C/O[C@@]2(C)Oc3c(C)c(O)c4c(O)c(c(/C=N/N5CCN(C)CC5)c(O)c4c3C2=O)NC(=O)/C(C)=C\C=C\[C@H](C)[C@H](O)[C@@H](C)[C@@H](O)[C@@H](C)[C@H](OC(C)=O)[C@@H]1C`
Given back: 32

Asked: Query: MIC of antibiotic at brevibacillin I 0 mg/L; subject: `CC[C@H]1OC(=O)[C@H](C)[C@@H](O[C@H]2C[C@@](C)(OC)[C@@H](O)[C@H](C)O2)[C@H](C)[C@@H](O[C@@H]2O[C@H](C)C[C@H](N(C)C)[C@H]2O)[C@](C)(O)C[C@@H](C)CN(C)[C@H](C)[C@@H](O)[C@]1(C)O`
Given back: 128

Asked: Query: MIC of antibiotic at brevibacillin I 0 mg/L; subject: `CCn1cc(C(=O)O)c(=O)c2ccc(C)nc21`
Given back: 256
